These measurements were taken from ChEMBL document CHEMBL1149505.

target: Synaptic vesicular amine transporter (Rattus norvegicus)
Sequence (Q01827 whole entry): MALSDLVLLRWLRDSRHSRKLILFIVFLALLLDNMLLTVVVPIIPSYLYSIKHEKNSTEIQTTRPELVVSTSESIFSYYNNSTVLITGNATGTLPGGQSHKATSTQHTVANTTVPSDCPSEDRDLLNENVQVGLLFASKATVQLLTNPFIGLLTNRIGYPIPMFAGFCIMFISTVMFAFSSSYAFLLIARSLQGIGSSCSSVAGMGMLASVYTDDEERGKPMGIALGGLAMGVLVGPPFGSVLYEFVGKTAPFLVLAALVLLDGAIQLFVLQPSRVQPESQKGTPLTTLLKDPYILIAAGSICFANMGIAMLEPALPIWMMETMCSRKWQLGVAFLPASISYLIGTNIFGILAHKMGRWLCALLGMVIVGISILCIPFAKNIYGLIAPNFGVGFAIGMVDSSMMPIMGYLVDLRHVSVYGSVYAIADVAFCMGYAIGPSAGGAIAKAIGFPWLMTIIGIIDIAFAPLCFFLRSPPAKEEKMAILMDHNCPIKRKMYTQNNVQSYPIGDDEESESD
Classify: Satisfied when Ki is strictly less than 3 µM; Not satisfied when Ki is not.

INSERT INTO assay_data (molecule, qualitative_label) VALUES
  ('CN1[C@H](CCc2ccccc2)CCC[C@@H]1C[C@@H](O)c1ccccc1 [8R-hydroxylobelane]', 'Satisfied'),
  ('CN1[C@@H](CCc2ccccc2)CCC[C@H]1C[C@@H](O)c1ccccc1', 'Not satisfied'),
  ('CCC1(O)CC2c3cc(OC)c(OC)cc3CCN2CC1CC(C)C (stereo not given)', 'Satisfied');

====

target: Neuronal acetylcholine receptor; alpha4/beta2 (Rattus norvegicus, UniProt P09483+P12390); test: Inhibition of [3H]NIC binding to alpha-4-beta-2 nAChR in rat brain membrane
Sequence (P09483 whole entry): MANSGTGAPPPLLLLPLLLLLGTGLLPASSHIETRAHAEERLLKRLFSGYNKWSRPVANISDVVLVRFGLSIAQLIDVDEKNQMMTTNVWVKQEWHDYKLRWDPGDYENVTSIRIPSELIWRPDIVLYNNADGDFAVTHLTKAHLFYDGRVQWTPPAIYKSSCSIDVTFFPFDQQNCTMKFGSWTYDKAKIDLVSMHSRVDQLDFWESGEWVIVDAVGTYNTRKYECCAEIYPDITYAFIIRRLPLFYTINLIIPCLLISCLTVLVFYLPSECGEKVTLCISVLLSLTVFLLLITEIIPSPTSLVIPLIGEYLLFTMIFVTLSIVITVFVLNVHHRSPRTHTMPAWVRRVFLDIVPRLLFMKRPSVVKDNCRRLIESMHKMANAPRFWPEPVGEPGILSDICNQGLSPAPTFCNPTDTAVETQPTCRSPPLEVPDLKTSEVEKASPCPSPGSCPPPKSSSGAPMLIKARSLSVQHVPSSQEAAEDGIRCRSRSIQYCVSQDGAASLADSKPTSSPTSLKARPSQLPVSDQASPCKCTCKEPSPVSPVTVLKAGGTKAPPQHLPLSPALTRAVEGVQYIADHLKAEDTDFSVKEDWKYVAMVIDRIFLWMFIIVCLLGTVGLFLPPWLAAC
Sequence (P12390 whole entry): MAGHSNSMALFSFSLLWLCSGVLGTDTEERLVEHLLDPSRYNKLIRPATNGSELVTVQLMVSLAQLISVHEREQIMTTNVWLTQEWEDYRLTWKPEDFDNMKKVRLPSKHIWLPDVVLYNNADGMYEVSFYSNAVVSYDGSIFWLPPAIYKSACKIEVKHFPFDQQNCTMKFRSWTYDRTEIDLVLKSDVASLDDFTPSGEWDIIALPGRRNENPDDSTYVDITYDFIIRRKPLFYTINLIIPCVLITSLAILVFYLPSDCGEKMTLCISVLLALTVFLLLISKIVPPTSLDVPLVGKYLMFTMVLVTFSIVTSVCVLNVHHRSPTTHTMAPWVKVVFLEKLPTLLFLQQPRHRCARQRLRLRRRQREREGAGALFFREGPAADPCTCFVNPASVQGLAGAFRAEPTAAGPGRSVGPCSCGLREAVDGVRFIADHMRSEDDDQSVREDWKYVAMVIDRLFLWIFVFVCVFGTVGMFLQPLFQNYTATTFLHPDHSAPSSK
Recorded Metric: Ki (µM)

INSERT INTO results (compound, units_symbol, measured_value) VALUES
  ('CN1[C@@H](C[C@@H](O)c2ccccc2)CCC[C@H]1/C=C/c1ccccc1', 'µM', 4.19),
  ('CN1[C@H](CCc2ccccc2)CCC[C@@H]1C[C@@H](O)c1ccccc1 [8R-hydroxylobelane]', 'µM', 2.36),
  ('CN1[C@@H](CCc2ccccc2)CCC[C@H]1C[C@H](O)c1ccccc1', 'µM', 1.77),
  ('CN1[C@H](CCc2ccccc2)CCC[C@@H]1C[C@H](O)c1ccccc1', 'µM', 33.6);

====

molecular target: Neuronal acetylcholine receptor; alpha4/beta2 (Rattus norvegicus, UniProt P09483+P12390); test: Inhibition of [3H]NIC binding to alpha-4-beta-2 nAChR in rat brain membrane; assay type: cell membranes
Recorded Metric: IC50

INSERT INTO measurements (input_smiles, measured_value) VALUES
  ('CN1[C@@H](C[C@H](O)c2ccccc2)CCC[C@H]1/C=C/c1ccccc1', '> 100 µM'),
  ('CN1[C@@H](CCc2ccccc2)CCC[C@H]1C[C@@H](O)c1ccccc1', '> 100 µM'),
  ('CN1[C@H](C[C@@H](O)c2ccccc2)CCC[C@@H]1/C=C/c1ccccc1', '> 100 µM');

====

target: Sodium-dependent dopamine transporter (Rattus norvegicus, UniProt P23977); test: Inhibition of [3H]DA uptake at DAT in rat striatal synaptosomes
Sequence (P23977 whole entry): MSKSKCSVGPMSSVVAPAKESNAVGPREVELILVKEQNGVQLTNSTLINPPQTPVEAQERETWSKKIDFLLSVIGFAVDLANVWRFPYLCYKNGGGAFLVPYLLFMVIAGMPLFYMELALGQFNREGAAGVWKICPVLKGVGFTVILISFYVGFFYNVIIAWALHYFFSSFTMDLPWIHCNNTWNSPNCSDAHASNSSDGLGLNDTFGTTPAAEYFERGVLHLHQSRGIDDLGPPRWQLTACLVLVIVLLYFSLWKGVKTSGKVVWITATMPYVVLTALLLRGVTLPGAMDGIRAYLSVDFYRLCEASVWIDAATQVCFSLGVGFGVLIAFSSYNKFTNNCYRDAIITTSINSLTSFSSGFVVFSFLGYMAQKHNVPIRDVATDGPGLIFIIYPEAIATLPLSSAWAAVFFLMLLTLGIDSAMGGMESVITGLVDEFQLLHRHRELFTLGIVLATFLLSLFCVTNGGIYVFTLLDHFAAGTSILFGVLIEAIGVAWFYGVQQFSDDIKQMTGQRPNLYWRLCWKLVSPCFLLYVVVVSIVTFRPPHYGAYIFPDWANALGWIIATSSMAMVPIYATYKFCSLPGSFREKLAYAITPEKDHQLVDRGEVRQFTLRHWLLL
pKi: −log10 of the molar value.
Quick reference: pKi of the listed items.
Recorded Metric: pKi

INSERT INTO results (compound, measured_value) VALUES
  ('CN1[C@H](C[C@H](O)c2ccccc2)CCC[C@@H]1/C=C/c1ccccc1', 6.96),
  ('CN1[C@@H](CCc2ccccc2)CCC[C@H]1C[C@@H](O)c1ccccc1', 6.24),
  ('CN1[C@@H](C[C@H](O)c2ccccc2)CCC[C@H]1/C=C/c1ccccc1', 6.02),
  ('CN1[C@H](CCc2ccccc2)CCC[C@@H]1C[C@@H](O)c1ccccc1 [8R-hydroxylobelane]', 5.73),
  ('CN1[C@@H](CC(=O)c2ccccc2)CCC[C@H]1C[C@H](O)c1ccccc1', 4.55),
  ('CN1[C@H](CCc2ccccc2)CCC[C@@H]1C[C@H](O)c1ccccc1', 5.90),
  ('CN1[C@H](C[C@@H](O)c2ccccc2)CCC[C@@H]1/C=C/c1ccccc1', 6.54),
  ('CN1[C@@H](CCc2ccccc2)CCC[C@H]1C[C@H](O)c1ccccc1', 5.86);
